- measurement-conditions: buffer; pH 7.4; 200.0 µM
Recorded solubility kinetic for the following compounds

Reference set, count: 6
CC(C)(C)NC(=O)NCc1ccco1	> 29.4 µg/mL
O=C(c1ccco1)N1CCN(C2c3ccccc3-c3ccccc32)CC1	1 µg/mL
N#C/C(=C\c1ccc2c(c1)OCO2)C(N)=S	5.8 µg/mL
Nc1ccccc1Nc1c(F)c(F)nc(F)c1Cl	37.6 µg/mL
O=C(Nc1cc2c3c(c1)CC(=O)N3CCC2)c1ccc(F)cc1	> 46.5 µg/mL
Nc1ccc2nc(COc3ccccc3)[nH]c2c1	12.4 µg/mL

Query: Find the recorded solubility kinetic belonging to O=C(Nc1ccc2ccccc2c1)c1ccc(Br)o1 and report it.
Reply: 4.9 µg/mL

Query: Moving on to Cc1cc(C(=O)N2CCN(c3ncccn3)CC2)nn1C
Reply: > 43 µg/mL

Query: Try the compound O=C(/C=C/c1ccco1)N(Cc1ccccc1)C1CCS(=O)(=O)C1 (centres undefined)
Reply: 47.1 µg/mL

Query: Subsequent entry: CSc1ncccc1C(=O)OCc1ccccc1Cl
Reply: < 0.6 µg/mL

Query: Note, next up: Cl.Clc1cc(I)cc(Cl)c1NC1=NCCN1
Reply: > 58.9 µg/mL

Query: CC(C)Nc1c([N+](=O)[O-])c(=O)oc2ccccc12 ?
Reply: 26.4 µg/mL

Query: And then Cc1ccccc1CC(=O)NC1CCN(C)CC1 , what is it?
Reply: > 37 µg/mL

Query: Now consider Cc1cc(C)c(NC(=S)N(CCc2ccncc2)C(C)C)c(C)c1 .
Reply: 48.8 µg/mL

Query: Try this compound too: Cc1ccc(Cn2ccc(O)c(Cc3ccccc3)c2=O)cc1
Reply: < 0.7 µg/mL

Query: Subsequent entry: COc1ccc(OC)c(S(=O)(=O)NCCCc2ccccc2)c1
Reply: 27.4 µg/mL

Query: Then NC(=O)c1cc(-c2cccnc2)nc2ccc(Br)cc12 ?
Reply: 2.2 µg/mL

Entry source: PubChem BioAssay AID1996
